- Tested on: phospho-ERK in A549 (KRAS G12S) cells
- Assay Method Text: Cell-based pERK (pERK:tERK) in A549 cells
- Protocol Conditions: 10 nM, 2 h; phospho- to total protein ratio normalized to DMSO control (Table 9)
Use Y when the recorded A549-pERK (10 nM, 2 h) is no lower than 60; use N when it is lower.

Use these answered entries as a reference point.
Given the entry CNS(=O)(=O)Nc1cccc(Cc2c(CN(C)Cc3ccccc3)c3ccc(OC(=O)N(C)C)cc3oc2=O)c1F , answer whether its A549-pERK (10 nM, 2 h) meets or surpasses 60. N

Given the entry C#CCNCCc1c(Cc2cccc(NS(=O)(=O)NC)c2F)c(=O)oc2cc(OC(=O)N(C)C)ccc12 , answer whether its A549-pERK (10 nM, 2 h) meets or surpasses 60. N

Given the entry CCS(=O)(=O)Nc1nccc(Cc2c(C)c3ccc(OC(=O)N(C)C)cc3oc2=O)c1F , answer whether its A549-pERK (10 nM, 2 h) meets or surpasses 60. Y

More entries:
Given the entry CNS(=O)(=O)Nc1nccc(Cc2c(CN3CC(F)(F)C3)c3ccc(OC(=O)N(C)C)cc3oc2=O)c1F , answer whether its A549-pERK (10 nM, 2 h) meets or surpasses 60. Y

Given the entry Cc1c(Cc2cccc(NS(=O)(=O)C3CC3)c2F)c(=O)oc2cc(OC(=O)N(C)C)ccc12 , answer whether its A549-pERK (10 nM, 2 h) meets or surpasses 60. N
